Origin of values: paper PMC6409085

target: SfurOBP2 (Sogatella furcifera); assay: biochemical; format: binding; details: ligand concentration 18 (unit not given), replicate column 2 of 3
Sequence (V5T759 entry or part of it): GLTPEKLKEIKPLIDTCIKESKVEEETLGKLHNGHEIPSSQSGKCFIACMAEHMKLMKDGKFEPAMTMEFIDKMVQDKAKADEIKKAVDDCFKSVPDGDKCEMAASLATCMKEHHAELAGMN
Reported Endpoint: Fluorescence competitive binding assay, OBP2 (raw fluorescence reading)
Just the number.

These solved cases illustrate the format of a correct answer.
>  <Compound>
CCCCCCCCCCCCCCCCCC

>  <Target Of Assay>
SfurOBP2 (Sogatella furcifera)

>  <Reported Value>
25474

$$$$
>  <Compound>
CCCCCCC=CCO

>  <Target Of Assay>
SfurOBP2 (Sogatella furcifera)

>  <Reported Value>
16819

$$$$
>  <Compound>
CCCCCCCCC=O

>  <Target Of Assay>
SfurOBP2 (Sogatella furcifera)

>  <Reported Value>
13674

$$$$

Record request: Fluorescence competitive binding assay, OBP2 (raw fluorescence reading) value, item `C=C1CC/C=C(\C)CC[C@@H]2[C@@H]1CC2(C)C` 21295

Given the entry C=C(C)C1CC=C(C)CC1 (single isomer, unassigned; (+)) [(+)-limonene] , report its measured Fluorescence competitive binding assay, OBP2 (raw fluorescence reading). 13156

Can you look up the measured Fluorescence competitive binding assay, OBP2 (raw fluorescence reading) of `OC1CCCCC1` for me? 16234

Given `Cc1ccc(C(C)C)cc1` , state its recorded Fluorescence competitive binding assay, OBP2 (raw fluorescence reading). 13102

Endpoint output: Fluorescence competitive binding assay, OBP2 (raw fluorescence reading) of `O=Cc1ccccc1` . Value? 12489

Tell me the measured Fluorescence competitive binding assay, OBP2 (raw fluorescence reading) of C=CC(C)(O)CCC=C(C)C (stereo not shown) , please. 15679

Entry under review: `C[C@@H]1CC[C@H]2C(C)(C)[C@H]3C[C@@]12CC[C@@]3(C)O` . Reported Fluorescence competitive binding assay, OBP2 (raw fluorescence reading)? 25169
